# target of assay: 5HT1A (Homo sapiens (Human))
# test: 5HT1A cAMP biosensor
# Assay type: cell-based
pEC50: −log10 of the molar value.
observed property: pEC50

Q: Checklist item: pEC50 tested on 5HT1A (Homo sapiens (Human)), entry O=C1CCc2ccc(OCCCCN3CCCN(c4cccc(Cl)c4Cl)CC3)cc2N1 [Compound 2] , value?
Ans: < 6.00

* * *

Kindly supply the reported β-arrestin (Tango) % activ at 1 μM values for the records listed here.
# target of assay: D2 receptors (Homo sapiens (Human))
# Sequence (P14416 whole entry, looked up): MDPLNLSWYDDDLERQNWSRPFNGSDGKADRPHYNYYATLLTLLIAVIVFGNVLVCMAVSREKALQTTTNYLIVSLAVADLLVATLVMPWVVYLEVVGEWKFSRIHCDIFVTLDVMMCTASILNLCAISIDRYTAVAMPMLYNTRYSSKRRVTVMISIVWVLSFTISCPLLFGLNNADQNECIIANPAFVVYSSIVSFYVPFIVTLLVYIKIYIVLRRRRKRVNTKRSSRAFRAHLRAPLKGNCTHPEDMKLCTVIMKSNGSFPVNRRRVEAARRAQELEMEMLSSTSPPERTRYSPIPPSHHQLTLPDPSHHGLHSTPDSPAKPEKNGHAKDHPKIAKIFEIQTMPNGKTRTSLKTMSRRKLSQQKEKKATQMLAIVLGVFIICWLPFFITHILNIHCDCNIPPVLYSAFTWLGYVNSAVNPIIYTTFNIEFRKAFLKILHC
# test: D2 β-arrestin recruitment (Tango) assay
# Assay type: cell-based
# condition parameters: 1 μM
Response body: numeric value in %, unit text excluded.

Q: Checklist item: β-arrestin (Tango) % activ at 1 μM tested on D2 receptors (Homo sapiens (Human)), entry O=C1CCc2ccc(OCC3CCC(CN4CCN(c5cccc(Cl)c5Cl)CC4)CC3)cc2N1 (stereo not shown) , value?
Ans: 6

Q: Checklist item: β-arrestin (Tango) % activ at 1 μM tested on D2 receptors (Homo sapiens (Human)), entry O=C1NCCc2ccc(OCCCCN3CCN(c4cccc(Cl)c4Cl)CC3)cc21 , value?
Ans: 12

Q: Checklist item: β-arrestin (Tango) % activ at 1 μM tested on D2 receptors (Homo sapiens (Human)), entry Clc1cccc(N2CCN(CCCCOc3ccc4cn[nH]c4c3)CC2)c1Cl , value?
Ans: 18

Q: Checklist item: β-arrestin (Tango) % activ at 1 μM tested on D2 receptors (Homo sapiens (Human)), entry Clc1cccc(C2CCN(CCCCOc3ccc4scnc4c3)CC2)c1Cl , value?
Ans: 26

Q: Checklist item: β-arrestin (Tango) % activ at 1 μM tested on D2 receptors (Homo sapiens (Human)), entry O=C1CCc2ccc(Oc3cccc(CN4CCN(c5cccc(Cl)c5Cl)CC4)c3)cc2N1 , value?
Ans: 9

Q: Checklist item: β-arrestin (Tango) % activ at 1 μM tested on D2 receptors (Homo sapiens (Human)), entry O=C1NCCc2ccc(OCCCN3CCN(c4cccc(Cl)c4Cl)CC3)cc21 , value?
Ans: 44

Q: Checklist item: β-arrestin (Tango) % activ at 1 μM tested on D2 receptors (Homo sapiens (Human)), entry O=c1[nH]c2ccc(OCCCCN3CCN(c4cccc(Cl)c4Cl)CC3)cc2[nH]1 , value?
Ans: 19

Q: Checklist item: β-arrestin (Tango) % activ at 1 μM tested on D2 receptors (Homo sapiens (Human)), entry O=C1CCc2ccc(Oc3ccc(CN4CCN(c5cccc(Cl)c5Cl)CC4)cc3)cc2N1 , value?
Ans: 16

Q: Checklist item: β-arrestin (Tango) % activ at 1 μM tested on D2 receptors (Homo sapiens (Human)), entry Clc1cccc(C2CCN(CCCOc3ccc4scnc4c3)CC2)c1Cl , value?
Ans: 59

Q: Checklist item: β-arrestin (Tango) % activ at 1 μM tested on D2 receptors (Homo sapiens (Human)), entry O=c1[nH]c2ccc(OCCCN3CCN(c4cccc(Cl)c4Cl)CC3)cc2[nH]1 , value?
Ans: 36

Q: Checklist item: β-arrestin (Tango) % activ at 1 μM tested on D2 receptors (Homo sapiens (Human)), entry Clc1cccc(N2CCN(CCCCOc3ccc4scnc4c3)CC2)c1Cl , value?
Ans: 13

Q: Checklist item: β-arrestin (Tango) % activ at 1 μM tested on D2 receptors (Homo sapiens (Human)), entry Clc1cccc(N2CCN(CCCOc3ccc4cn[nH]c4c3)CC2)c1Cl , value?
Ans: 45

Q: Checklist item: β-arrestin (Tango) % activ at 1 μM tested on D2 receptors (Homo sapiens (Human)), entry Clc1cccc(N2CCN(CCCOc3ccc4scnc4c3)CC2)c1Cl , value?
Ans: 48

Q: Checklist item: β-arrestin (Tango) % activ at 1 μM tested on D2 receptors (Homo sapiens (Human)), entry O=C1CCc2ccc(OCCCCN3CCCN(c4cccc(Cl)c4Cl)CC3)nc2N1 , value?
Ans: 11

Q: Checklist item: β-arrestin (Tango) % activ at 1 μM tested on D2 receptors (Homo sapiens (Human)), entry O=C1NCCc2ccc(OCCCCN3CCC(c4cccc(Cl)c4Cl)CC3)cc21 , value?
Ans: 26

Q: Checklist item: β-arrestin (Tango) % activ at 1 μM tested on D2 receptors (Homo sapiens (Human)), entry O=C1NCCc2ccc(OCCCN3CCCN(c4cccc(Cl)c4Cl)CC3)cc21 , value?
Ans: 13
